test system: MPNST complex spheroid with HUVEC/MSC, growth, % test/control; experiment: Anticancer human tumor MPNST cell line growth inhibition [Asc]; details: second compound 3.16 µM; first compound 0.1 µM; active compounds read low;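 note: compounds left on spheroids for seven days before reading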
assay_endpoint: viability, T/C

CCN1CCN(Cc2ccc(Nc3ncc(F)c(-c4cc(F)c5nc(C)n(C(C)C)c5c4)n3)nc2)CC1 + Cc1c(S(C)(=O)=O)c(-c2cc(F)cc(N3CCN(c4ccc(NS(=O)(=O)c5ccc(NC(CCN6CCC(C(=O)OCCCP(=O)(O)O)CC6)CSc6ccccc6)c(S(=O)(=O)C(F)(F)F)c5)cc4)CC3)c2)c(-c2ccc(Cl)cc2)n1C(C)C : 47.6%

Short answer for C=CC(=O)N1CCN(c2nc(=O)n(-c3c(C)ccnc3C(C)C)c3nc(-c4c(O)cccc4F)c(F)cc23)C(C)C1 (configuration not stated) + Cc1c(S(C)(=O)=O)c(-c2cc(F)cc(N3CCN(c4ccc(NS(=O)(=O)c5ccc(NC(CCN6CCC(C(=O)OCCCP(=O)(O)O)CC6)CSc6ccccc6)c(S(=O)(=O)C(F)(F)F)c5)cc4)CC3)c2)c(-c2ccc(Cl)cc2)n1C(C)C : viability, T/C was 88%
